Overview of recorded pIC50 for various compounds
System: HTT mRNA
Test: RT-qPCR splicing assay, HTT canonical junction (CJ) and alternative junction (AJ) mRNA
Format: cell-based, human
Conditions: Homo sapiens, decrease in HTT canonical junction (CJ) mRNA, RT-qPCR; read-out: HTT CJ IC50
pIC50: −log10 of the molar value.
TEST READOUT: pIC50

COMPOUND | ASSAY SYSTEM | ASSAY VALUE
Cc1cn2nc(-c3cc4ncn(C5CCNCC5)c(=O)c4cc3F)cc(C)c2n1 | HTT mRNA | 5.00 to 6.00
Cc1cn2nc(-c3ccc4c(=O)n(C5CCNC6(CC6)C5)ccc4c3)cc(C)c2n1 (stereo not shown) | HTT mRNA | > 7.00
Cn1cc2cc(-c3ccc4c(=O)n([C@@H]5CCNC6(CC6)C5)ccc4n3)c(O)cc2n1 | HTT mRNA | 6.00 to 7.00
Cn1cc2cc(-c3ccc4c(=O)n(C5CCNC6(CC6)C5)ccc4n3)c(O)cc2n1 (stereo not shown) | HTT mRNA | > 7.00

----------
Tested on: Target C
Assay: RT-qPCR splicing assay panel, Target C canonical junction (CJ) mRNA
Assay type: cell-based, human
Conditions: Homo sapiens; canonical junction qPCR panel, Table 5; read-out: Target C (decrease in CJ mRNA levels, IC50)
pIC50: −log10 of the molar value.

MOLECULE | ASSAY SYSTEM | pIC50
Cc1c(O)c(-c2ncc3c(=O)n(C4CCNC(C)(C)C4)ccc3n2)cc2cn(C)nc12 (centres unmarked) | Target C | 5.00 to 6.00
Cc1c(O)c(-c2ncc3c(=O)n([C@@H]4CCNC(C)(C)C4)ccc3n2)cc2cn(C)nc12 | Target C | < 5.00
Cn1cc2cc(-c3ccc4c(=O)n(C5CCNC6(CC6)C5)ccc4n3)c(O)cc2n1 (centres unmarked) | Target C | 6.00 to 7.00
Cc1cn2nc(-c3ccc4c(=O)n([C@H]5CCN[C@@H](C)C5)ccc4n3)cc(C)c2n1 | Target C | 6.00 to 7.00
C[C@@H]1C[C@H](n2ccc3nc(-c4cc5cn(C)nc5cc4O)ncc3c2=O)CCN1 | Target C | 5.00 to 6.00
Cc1c(O)c(-c2ncc3c(=O)n(C4CCNC4)ccc3n2)cc2cn(C)nc12 (stereo in doubt) [Compound 1439] | Target C | < 5.00
Cc1cn2cc(-c3ccc4c(=O)n(C5CCNCC5)ccc4n3)c(O)cc2n1 | Target C | < 5.00
Cc1cn2nc(-c3ccc4c(=O)n(C5CCNC6(CCC6)C5)ncc4n3)cc(C)c2n1 (centres unmarked) | Target C | 5.00 to 6.00

----------
System: HTT mRNA
Assay: RT-qPCR splicing assay, HTT canonical junction (CJ) and alternative junction (AJ) mRNA
Assay type: cell-based, human
Conditions: Homo sapiens; Table 5 panel; canonical junction qPCR; compound concentration having 50% response in CJ decrease; read-out: HTT IC50 (decrease in CJ mRNA levels)
pIC50: −log10 of the molar value.
Overview of recorded pIC50 for various compounds

COMPOUND | pIC50
Cc1cn2cc(-c3ncc4c(=O)n([C@H]5CCNC5)ccc4n3)cc(F)c2n1 [Compound 1220] | 6.00 to 7.00
COc1c(-c2cc3ccn(C4CCNCC4)c(=O)c3cn2)cc2cn(C)nc2c1F [Compound 1219] | 5.00 to 6.00
Cc1cn2cc(-c3cc(F)c4c(=O)n([C@H]5CNCC[C@@H]5O)cnc4c3)cc(F)c2n1 [Compound 348] | < 5.00
Cc1cc(-c2nc3ccc(N(C)C4CCN(C)CC4)cc3c(=O)[nH]2)cc2cn(C)nc12 [Compound 239] | < 5.00
Cc1cc(-c2nc3ccc(N(C)C4CCNCC4)cc3c(=O)[nH]2)cc2cn(C)nc12 [Compound 121] | 5.00 to 6.00
Cc1cn2cc(-c3cc4ncn(C5CCNCC5)c(=O)c4cc3F)cc(F)c2n1 [Compound 586] | 6.00 to 7.00
Cc1nc2c(F)cc(-c3ccc4c(=O)n(C5CCN(C)CC5)cnc4c3)cc2s1 [Compound 301] | 5.00 to 6.00
O=c1c2ccc(-c3cn[nH]c3)cc2cnn1C1CCNCC1 [Compound 261] | < 5.00
Cc1cn2cc(-c3cc(F)c4c(=O)n([C@H]5CNC[C@@H]5F)ccc4c3)cc(F)c2n1 [Compound 644] | < 5.00
Cc1cc(-c2cc(F)c3c(=O)n(C4CCN(C)CC4)cnc3c2)cc2cn(C)nc12 [Compound 233] | 6.00 to 7.00
Cc1cn2nc(-c3cc(F)c4c(=O)n(C5CCNC5)ccc4c3)cc(C)c2n1 (stereo in doubt) [Compound 382] | 5.00 to 6.00
Cc1cn2nc(-c3ccc4c(=O)n(C5CCN(C)CC5)cnc4c3)cc(C)c2n1 [Compound 176] | 5.00 to 6.00
Cc1cn2nc(-c3cc(F)c4c(=O)n(C5CCN(C)CC5)ncc4c3)cc(C)c2n1 [Compound 539] | > 7.00
CNC(=O)Cc1cc(-c2ccc3c(=O)n(C4CCNCC4)ccc3c2)nn2cc(C)nc12 [Compound 534] | 5.00 to 6.00
Cc1cn2cc(-c3cc(F)c4c(=O)n(C5CCNC6(CC6)C5)ccc4c3)ncc2n1 (centres unmarked) [Compound 428] | 5.00 to 6.00
Cc1cn2nc(-c3ccc4c(=O)n(C5CCNC6(CC6)C5)ccc4c3)cc(C)c2n1 (centres unmarked) [Compound 384] | > 7.00
Cc1cc(-c2cc3ccn(C4CCN(C)CC4)c(=O)c3cn2)cc2cn(C)nc12 [Compound 1206] | < 5.00
